target: Metabotropic glutamate receptor 5 (Rattus norvegicus); assay: Antagonist activity at rat mGlu5 receptor expressed in HEK293A cells assessed as inhibition of glutamate-induced calcium mobilization
endpoint: IC50

N#Cc1cc(F)cc(C(=O)Nc2ccccn2)c1 ... 3010 nM
N#Cc1cc(F)cc(C(=O)Nc2ccc(F)c(Cl)c2)c1 ... 377 nM
COc1cccc(NC(=O)c2cc(F)cc(C#N)c2)c1 ... > 10000 nM
N#Cc1cc(F)cc(C(=O)Nc2cccc(C(F)(F)F)n2)c1 ... > 10000 nM
Cn1ccc(NC(=O)c2cc(F)cc(C#N)c2)n1 ... > 10000 nM
N#Cc1cc(F)cc(C(=O)NC2CCCCC2)c1 ... > 30000 nM

Which IC50 value belongs to Cc1ccccc1NC(=O)c1cc(F)cc(C#N)c1 ?
> 30000 nM

----------
As shown below, each of these compounds has a reported AUC(0-t) at 4 h value.
test: AUC (0-4 hrs) in Sprague-Dawley rat brain at 10 mg/kg, ip; type: ADME, organism-based; design: time < 4 hr, dose 10 mg/kg, route intraperitoneal

N#Cc1cc(F)cc(C(=O)Nc2cccc(Cl)c2)c1 ... 1710 ng·h/mL

Alright, here's another compound for you.
Reported AUC(0-t) at 4 h, compound Cc1csc(NC(=O)c2cc(F)cc(C#N)c2)n1 : ____
73000 ng·h/mL

----------
target: Metabotropic glutamate receptor 5 (Rattus norvegicus, UniProt P31424); assay: Antagonist activity at rat mGlu5 receptor expressed in HEK293A cells assessed as inhibition of glutamate-induced calcium mobilization
Sequence (P31424 whole entry): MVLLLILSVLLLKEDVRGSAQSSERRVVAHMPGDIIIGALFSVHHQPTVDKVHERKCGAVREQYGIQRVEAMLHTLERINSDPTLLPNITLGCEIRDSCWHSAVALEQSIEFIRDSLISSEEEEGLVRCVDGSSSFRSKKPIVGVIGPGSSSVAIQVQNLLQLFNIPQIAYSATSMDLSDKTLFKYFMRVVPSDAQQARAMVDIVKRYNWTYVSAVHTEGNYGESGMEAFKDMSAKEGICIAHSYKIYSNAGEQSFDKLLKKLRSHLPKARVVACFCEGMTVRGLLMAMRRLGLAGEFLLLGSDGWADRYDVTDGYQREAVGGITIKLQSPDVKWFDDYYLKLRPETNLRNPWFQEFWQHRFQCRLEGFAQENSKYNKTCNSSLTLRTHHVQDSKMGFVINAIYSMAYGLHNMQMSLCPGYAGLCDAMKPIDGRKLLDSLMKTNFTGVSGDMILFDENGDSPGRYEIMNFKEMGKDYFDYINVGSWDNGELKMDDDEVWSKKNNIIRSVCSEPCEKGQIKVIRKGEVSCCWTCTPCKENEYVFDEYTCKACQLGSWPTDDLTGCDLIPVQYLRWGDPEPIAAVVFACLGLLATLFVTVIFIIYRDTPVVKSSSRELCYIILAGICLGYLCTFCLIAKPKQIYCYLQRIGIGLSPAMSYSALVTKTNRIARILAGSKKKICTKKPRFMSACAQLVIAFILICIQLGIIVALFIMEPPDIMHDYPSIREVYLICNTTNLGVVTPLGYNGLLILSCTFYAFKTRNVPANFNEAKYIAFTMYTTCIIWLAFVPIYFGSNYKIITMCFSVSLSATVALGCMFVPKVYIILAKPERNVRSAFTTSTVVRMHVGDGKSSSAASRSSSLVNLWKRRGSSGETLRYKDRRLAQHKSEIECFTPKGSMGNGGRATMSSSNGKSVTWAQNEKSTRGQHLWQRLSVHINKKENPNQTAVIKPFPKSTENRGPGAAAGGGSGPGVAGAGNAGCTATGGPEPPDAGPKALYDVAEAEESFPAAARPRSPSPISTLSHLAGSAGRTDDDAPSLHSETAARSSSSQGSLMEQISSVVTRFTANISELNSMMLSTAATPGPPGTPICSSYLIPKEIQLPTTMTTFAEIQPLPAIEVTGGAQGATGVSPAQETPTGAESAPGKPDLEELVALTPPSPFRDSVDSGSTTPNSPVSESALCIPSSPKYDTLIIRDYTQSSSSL
endpoint: IC50

Below: 5 compounds and their reported IC50.
N#Cc1cc(F)cc(C(=O)Nc2cc(F)cc(Cl)c2)c1 ... 1.83 µM
N#Cc1cc(F)cc(C(=O)Nc2ccccc2Cl)c1 ... > 30 µM
CC(C)(C)c1csc(NC(=O)c2cc(F)cc(C#N)c2)n1 ... > 10 µM
CS(=O)(=O)c1cccc(NC(=O)c2cc(F)cc(C#N)c2)c1 ... > 30 µM
Cc1cccc(NC(=O)c2cc(F)cc(C#N)c2)c1 ... 0.122 µM

Reported IC50, compound N#Cc1cc(F)cc(C(=O)Nc2ccccc2F)c1 : ____
> 30 µM

----------
assay: Cmax in Sprague-Dawley rat brain at 10 mg/kg, ip after 0.25 to 4 hrs; type: ADME, organism-based; set-up: dose 10 mg/kg, route intraperitoneal
endpoint: Cmax (ng/mL)
Give just the number in ng/mL; leave the unit off.

N#Cc1cc(F)cc(C(=O)Nc2cccc(Cl)c2)c1 ... 1090

API: the following record is the query input.
Param item = Cc1csc(NC(=O)c2cc(F)cc(C#N)c2)n1 ; retrieve measured Cmax.
28800

----------
target: Metabotropic glutamate receptor 5 (Rattus norvegicus); assay: Antagonist activity at rat mGlu5 receptor expressed in HEK293A cells assessed as inhibition of glutamate-induced calcium mobilization
IC50 vs 500 nM: less than gives Y; not less than gives N.

Here are 5 compounds together with their reported answers.
COc1ccc(NC(=O)c2cc(F)cc(C#N)c2)cc1 ... N
N#Cc1cc(F)cc(C(=O)Nc2ccncc2)c1 ... N
Cc1nc(NC(=O)c2cc(F)cc(C#N)c2)sc1C ... N
N#Cc1cc(F)cc(C(=O)Nc2ccc(Cl)cc2)c1 ... N
CCc1cccc(NC(=O)c2cc(F)cc(C#N)c2)c1 ... N

Please state whether IC50 is below 500 nM for Cc1csc(NC(=O)c2cc(F)cc(C#N)c2)n1
Y

Similarly, N#Cc1cc(F)cc(C(=O)Nc2cccc(Cl)c2)c1 ?
Y

Continue with COc1cccc(NC(=O)c2cc(F)cc(C#N)c2)n1
N

Now give it for N#Cc1cc(F)cc(C(=O)Nc2nccs2)c1 too.
N

Further, for Cc1ccc(NC(=O)c2cc(F)cc(C#N)c2)cc1 ?
N

Do the same for N#Cc1cc(F)cc(C(=O)NC2C3CC4CC(C3)CC2C4)c1 (stereo unspecified) please
N

What do we get for N#Cc1cc(F)cc(C(=O)Nc2cccc(Cl)c2F)c1 ?
Y

----------
molecular target: Metabotropic glutamate receptor 5 (Rattus norvegicus, UniProt P31424); test: Antagonist activity at rat mGlu5 receptor expressed in HEK293A cells assessed as inhibition of glutamate-induced calcium mobilization
The entries below come with measured pIC50 values attached.
Recall that pIC50 is obtained by taking minus log10 of the concentration measured in molar.

Cc1cnc(NC(=O)c2cc(F)cc(C#N)c2)s1 ... 6.06
CCc1cccc(NC(=O)c2cc(F)cc(C#N)c2)n1 ... 6.30

Quick one: pIC50 for N#Cc1cc(F)cc(C(=O)Nc2nc(C3CC3)cs2)c1 ?
6.05

Another compound to look at: N#Cc1cc(F)cc(C(=O)Nc2cccc(C(F)(F)F)c2)c1
6.27

----------
target: Metabotropic glutamate receptor 5 (Rattus norvegicus, UniProt P31424); assay: Antagonist activity at rat mGlu5 receptor expressed in HEK293A cells assessed as inhibition of glutamate-induced calcium mobilization
Rule: IC50 below 2 µM gives Condition met. Equal to or above 2 µM gives Condition not met.

Take a look at these entries with their results.
Cc1cccnc1NC(=O)c1cc(F)cc(C#N)c1 ... Condition not met
N#Cc1cc(F)cc(C(=O)Nc2cccc(Cl)n2)c1 ... Condition met
N#Cc1cc(F)cc(C(=O)Nc2ccccc2)c1 ... Condition not met
N#Cc1cccc(NC(=O)c2cc(F)cc(C#N)c2)c1 ... Condition met
COc1ccccc1NC(=O)c1cc(F)cc(C#N)c1 ... Condition not met
N#Cc1cc(F)cc(C(=O)Nc2cc(Cl)ccc2F)c1 ... Condition not met
Cc1cc(C)nc(NC(=O)c2cc(F)cc(C#N)c2)c1 ... Condition not met
N#Cc1cc(F)cc(C(=O)Nc2ccon2)c1 ... Condition not met
N#Cc1cc(F)cc(C(=O)Nc2ccc(F)cc2)c1 ... Condition not met
N#Cc1cc(F)cc(C(=O)Nc2cccnc2)c1 ... Condition not met

Proceed to the following item.
Does the reported IC50 of the following compound sit strictly below 2 µM? Cc1cccc(NC(=O)c2cc(F)cc(C#N)c2)n1
Condition met

----------
biological target: Metabotropic glutamate receptor 5 (Rattus norvegicus); assay: Antagonist activity at rat mGlu5 receptor expressed in HEK293A cells assessed as inhibition of glutamate-induced calcium mobilization
endpoint: IC50 (nM)
Return type: number; implicit unit nM.

N#Cc1cc(F)cc(C(=O)Nc2cccc(F)c2)c1 ... 2160

Here is another compound to look at.
Quick check: IC50 of C#Cc1cccc(NC(=O)c2cc(F)cc(C#N)c2)c1 ?
331
